test: recombinant UMI read abundance after kanamycin selection (control-corrected) (log10(CPM+1)); higher = more efficient recombination; extreme values may be limits of the assay; sequences stand for … in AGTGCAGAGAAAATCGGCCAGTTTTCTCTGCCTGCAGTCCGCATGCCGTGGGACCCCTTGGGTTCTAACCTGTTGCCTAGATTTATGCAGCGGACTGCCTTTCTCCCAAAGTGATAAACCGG…AGGTTGGTTTCACT; site = the 11-nt donor;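 also: IS621 bridge recombinase in Escherichia coli cells against a fixed T5 target plasmid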
measurement-type: recombinant UMI read abundance (log10)
Answers are plain numbers.

biopolymer-sequence | recorded-value
CCGATATCATGGACCGGTTTTCCCGGTAATCCGTATTTGGC (site CCGATATCTGC) | 0.68
GGCAATCCATGGACCGGTTTTCCCGGTAATCCGTATTTGGA (site GGCAATCCTTT) | 0.00891
CTTCTGTCATGGACCGGTTTTCCCGGTAATCCGTATTTGTA (site CTTCTTTCTTA) | 0

I would be grateful if you could provide recombinant UMI read abundance (log10) for each of the following entries.
1. CGGGCACCATGGACCGGTTTTCCCGGTAATCCGTATTTGAT (site CGGGTACCTAT)
2. TTTGTGGCATGGACCGGTTTTCCCGGTAATCCGTATTTGCT (site TTTGCGGCTAG)

[0, 0.00488]
